- TESTED_TARGET: T1, chemokine receptor CCR1 (human, UniProt P32246 1-355)
- T1 construct: whole, on cells
- T1 sequence (looked up): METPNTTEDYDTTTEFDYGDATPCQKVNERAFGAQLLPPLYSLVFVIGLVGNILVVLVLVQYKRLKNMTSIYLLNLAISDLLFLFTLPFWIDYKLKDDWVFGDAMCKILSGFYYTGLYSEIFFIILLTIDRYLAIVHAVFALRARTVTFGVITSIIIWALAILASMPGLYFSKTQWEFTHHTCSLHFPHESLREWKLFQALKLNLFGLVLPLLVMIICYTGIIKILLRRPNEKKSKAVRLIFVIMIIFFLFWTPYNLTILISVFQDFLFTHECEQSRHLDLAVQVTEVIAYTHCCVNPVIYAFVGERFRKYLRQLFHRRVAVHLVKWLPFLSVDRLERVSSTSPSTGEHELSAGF
- TEST_METHOD_NOTES: radioligand competition binding, CCR1
pKi: −log10 of the molar value.
READOUT_NAME: pKi

{"BINDER": "full size human chemokine HCC-1, amino acid residues 1-74 (ligand, 74-residue chemokine, Mr 8673; Swiss-Prot Q16627 is printed for the HCC-1 precursor; also called full-size HCC-1; full length HCC-1) TKTESSSRGPYHPSECCFTYTTYKIPRQRIMDYYETNSQCSKPGIVFITKRGHSVCTNPSDKWVQDYIKDMKEN", "OBSERVED_MEASUREMENT": 7.00}
